# Tested on: CCRF-CEM
# ASSAY: NCI tumour cell line growth inhibition, 48 h
The source made the active and inactive calls. No stated cut-off is given here; in the data, active = GI50 up to about 1.1 µM and inactive = higher.
Thanks in advance; please answer with one of these: active, inactive

[in] Outcome? CCC1C2C=CC(CC2)N1S(=O)(=O)c1ccc(C)cc1 (stereo not drawn)
[out] inactive

[in] Note, next up: Cc1c(Cl)cccc1NC(=O)C(=O)C(C(=O)c1ccccc1-c1ccccc1)C1OC(=O)c2ccccc21 (stereo not drawn)
[out] inactive

[in] Note, next up: `O=C1/C(=C/c2ccc(Cl)cc2)Sc2scc(-c3cccc([N+](=O)[O-])c3)[n+]21`
[out] active

[in] Note, next up: C=C1C(=O)O[C@@H]2[C@H]1C[C@H](I)[C@@]1(C)CC[C@H](O1)[C@](C)(I)CCCC(C)[C@@H]2O (stereo partly drawn)
[out] active

[in] Note, next up: CC(=O)OCC1OC(NC(=S)Nn2c(=O)[nH]c3ccccc3c2=O)C(OC(C)=O)C(OC(C)=O)C1OC(C)=O (stereo not drawn)
[out] inactive

[in] Note, next up: CC(=O)NC1C(OCc2ccccc2)OC(CO)C(O)C1OC(C)C(=O)NC(C(=O)N[C@@H](CCC(=O)NCCNCCNc1c2ccccc2nc2cccc([N+](=O)[O-])c12)C(N)=O)C(C)C (stereo partly drawn)
[out] inactive

[in] Note, next up: `CCOC(=O)CN1C(=O)C(=O)N(c2ccc(OC)c3ccccc23)C1=O`
[out] inactive

[in] Note, next up: CN1CCC(O)C(CNC23CC4CC(CC(C4)C2)C3)C1 (stereo not drawn)
[out] inactive

* * *

# Test system: NCI-H23
# ASSAY: NCI tumour cell line growth inhibition, 48 h
Active and inactive are the calls of the source. Cut-off read from the data, not from the text of the source: active = GI50 up to about 1.1 µM and inactive = higher.
I'd appreciate it if you could supply GI50 values for the items below.

[in] Could you tell me which GI50 is on file for COC1(OC)C2(Cl)C(Cl)=C(Cl)C1(Cl)C1COCC12 (stereo not drawn) ?
[out] > 45 µM (inactive)

[in] Note, next up: `O=C(O)CN(c1ccccc1)S(=O)(=O)c1ccccc1[N+](=O)[O-]`
[out] > 100 µM (inactive)

[in] Note, next up: `COc1ccc(NC(=O)c2cc(OC)c(OC)c(OC)c2)cc1`
[out] 40.7 µM (inactive)

[in] Note, next up: CN(N=O)C(=O)N(N)CCCCC(NC(=O)OCc1ccccc1)C(=O)OCc1ccccc1 (stereo not drawn)
[out] 14.6 µM (inactive)

[in] Note, next up: Cc1cccc(NC(=O)C(=O)C(C(=O)c2ccccc2F)C2OC(=O)c3ccccc32)c1Cl (stereo not drawn)
[out] 24.2 µM (inactive)

[in] Note, next up: `O/N=C/c1ncccc1C1OCCO1`
[out] > 100 µM (inactive)

[in] Note, next up: COC(=O)C1CCC(=O)N1C(c1ccc(OC)cc1)c1ccc2c(c1)OCO2 (stereo not drawn)
[out] 82.8 µM (inactive)

[in] Note, next up: `CCc1cc(Cc2cc(CC)c(NC(=O)C(=O)CC(=O)c3sc(-c4cccnc4)nc3C)c(CC)c2)cc(CC)c1NC(=O)C(=O)CC(=O)c1sc(-c2cccnc2)nc1C`
[out] > 100 µM (inactive)

[in] Note, next up: `CN(C)CCNC(=O)c1ccc2ccc3cccnc3c2n1`
[out] 17.1 µM (inactive)

[in] Note, next up: `Cc1ccc(/C=C/C(=O)C(C)(C)CN2CCCCC2)cc1`
[out] 11.5 µM (inactive)

[in] Note, next up: `Cc1cccc(/C=N/NC(=S)NC2CCCCC2)n1`
[out] 32.4 µM (inactive)

[in] Note, next up: CC(=O)OCC(OC(C)=O)C(OC(C)=O)C(/C=N\Nc1nc2ccccc2c(=O)[nH]1)OC(C)=O (stereo not drawn)
[out] > 100 µM (inactive)

[in] Note, next up: `N/N=c1\c2ccccc2c2ccc3c4ccccc4/c(=N\N)c3c12`
[out] > 100 µM (inactive)

[in] Note, next up: C#CC1/C(=C\C(=O)OC)CCCC1O (stereo not drawn)
[out] > 100 µM (inactive)

[in] Note, next up: `Oc1ccc(-c2nc3cc(F)ccc3s2)cc1`
[out] 32.3 µM (inactive)

[in] Note, next up: `CC/C=C\C/C=C\C/C=C\CCCCCCCC(=O)OCC`
[out] > 100 µM (inactive)

[in] Note, next up: CCN(CC)/[N+]([O-])=N/OCC(C)O (stereo not drawn)
[out] > 100 µM (inactive)

[in] Note, next up: COc1cccc(/C=C2\CCC(CCN(C)C)(C3=CCCC3)C2=O)c1 (stereo not drawn)
[out] 19.3 µM (inactive)

[in] Note, next up: `CCOC(=O)/C1=C(\C)N(c2ccc(C)cc2)C(=O)c2ccccc2C(=O)c2c(O)ccc(O)c21`
[out] 24.7 µM (inactive)

[in] Note, next up: `Cc1cs/c(=N/c2ccccc2)n1CCC(O)(P(=O)(O)O)P(=O)(O)O`
[out] > 100 µM (inactive)

[in] Note, next up: `O=[N+]([O-])c1ccc(/N=N/N2CCCC2)cc1`
[out] > 100 µM (inactive)

[in] Note, next up: CC(Oc1ccc(Cl)cc1Cl)C(=O)NN1C(=O)CC(=O)N(c2ccccc2)C1=S (stereo not drawn)
[out] 37.2 µM (inactive)

[in] Note, next up: `C/C(=C\CNc1nc(Cl)nc2[nH]cnc12)CO`
[out] > 100 µM (inactive)
